- assay info: Half life in C57BL/6J mouse brain at 20 mg/kg, po by LC-MS/MS analysis
- Format: ADME, organism-based
measured endpoint: half-life (h)
Response body: numeric value in h, unit text excluded.

Ask: Determine its reported half-life: COc1ccc(-c2nc(N)nc3c2CCCC3C)cc1 (racemic)
Reply: 1.1

###

- system: Histamine H3 receptor (Homo sapiens, UniProt Q9Y5N1)
- Sequence (Q9Y5N1 whole entry): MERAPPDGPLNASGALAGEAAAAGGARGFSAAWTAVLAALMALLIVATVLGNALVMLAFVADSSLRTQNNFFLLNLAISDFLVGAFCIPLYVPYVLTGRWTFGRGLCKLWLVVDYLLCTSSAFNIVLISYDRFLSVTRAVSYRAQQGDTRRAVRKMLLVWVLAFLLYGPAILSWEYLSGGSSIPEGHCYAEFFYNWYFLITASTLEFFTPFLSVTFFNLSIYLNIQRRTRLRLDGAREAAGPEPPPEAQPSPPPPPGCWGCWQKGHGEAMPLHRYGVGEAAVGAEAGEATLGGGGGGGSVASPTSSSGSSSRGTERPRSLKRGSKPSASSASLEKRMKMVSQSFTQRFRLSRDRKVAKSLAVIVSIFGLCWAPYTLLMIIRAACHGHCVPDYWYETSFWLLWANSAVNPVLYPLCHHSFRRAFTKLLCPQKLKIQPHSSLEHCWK
- assay info: Antagonist activity at recombinant human Gi-coupled H3 receptor expressed in HEK293T cells assessed as reduction in histamine-induced inhibition of forskolin-stimulated cAMP accumulation preincubated for 10 to 15 followed by histamine addition for 10 mins and subsequent forskolin-stimulation by Glo-sensor assay
Here the recorded log10 IC50 is given for each entry.
Heads up: the numbers are on a log10 scale; they represent IC50 in µM.

CC1CCCc2c(-c3ccc([N+](=O)[O-])cc3)nc(N)nc21 (configuration not stated)	1.09
CC1CCCc2c(-c3cccc(O)c3)nc(N)nc21 (configuration not stated)	0.66
CC1CCCc2c1nc(N)nc2C1CCCCC1 (configuration not stated)	-0.62

Ask: Please respond with reported log10 IC50 (system Histamine H3 receptor (Homo sapiens, UniProt Q9Y5N1)) for COc1ccc(-c2nc(N)nc3c2CC(C)CC3)cc1 (configuration not stated) .
Reply: 0.67

Ask: Please report the measured log10 IC50 for COc1cccc(-c2nc(N)nc3c2CCCC3C)c1 (configuration not stated) tested on Histamine H3 receptor (Homo sapiens, UniProt Q9Y5N1).
Reply: -1.15

Ask: Provide measured log10 IC50 on Histamine H3 receptor (Homo sapiens, UniProt Q9Y5N1) for CC1CCCc2c(-c3ccc(C#N)cc3)nc(N)nc21 (configuration not stated) please.
Reply: 0.74

Ask: Find the measured log10 IC50 of `CCCCc1cc(-c2ccc(OC)cc2)nc(N)n1` with Histamine H3 receptor (Homo sapiens, UniProt Q9Y5N1) as test system.
Reply: 0.65

Ask: Recall the reported log10 IC50 of COc1ccc(-c2nc(N)nc3c2CCCC3C)cc1 (racemic) when tested on Histamine H3 receptor (Homo sapiens, UniProt Q9Y5N1).
Reply: -1.40

###

compounds and their reported pEC50
- system: Histamine H2 receptor (Homo sapiens)
- Sequence (P25021 whole entry): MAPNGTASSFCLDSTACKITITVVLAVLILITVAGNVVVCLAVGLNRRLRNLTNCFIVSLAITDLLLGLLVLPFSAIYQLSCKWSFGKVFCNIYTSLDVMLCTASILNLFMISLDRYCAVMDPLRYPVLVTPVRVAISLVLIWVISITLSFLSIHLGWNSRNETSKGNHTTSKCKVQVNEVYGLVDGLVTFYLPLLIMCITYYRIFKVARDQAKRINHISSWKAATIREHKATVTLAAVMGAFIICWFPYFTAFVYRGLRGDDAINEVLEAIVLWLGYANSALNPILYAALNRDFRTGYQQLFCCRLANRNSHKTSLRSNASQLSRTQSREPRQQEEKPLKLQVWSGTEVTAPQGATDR
- assay info: Agonist activity at recombinant human Gs-coupled H2 receptor expressed in HEK293T cells assessed as inhibition of forskolin-stimulated cAMP accumulation preincubated for 10 to 15 followed by forskolin-stimulation by Glo-sensor assay
- Format: functional, cell-based
- assay context: read-out: EC50
Would you please state pEC50, meaning minus log10 of the concentration in mol/L, as a bare number?

CC1CCCc2c1nc(N)nc2C1CCCCC1 (centres undefined)	6.44
CC1CCCc2c(-c3ccc(F)cc3)nc(N)nc21 (centres undefined)	7.10
CC1CCCc2c(-c3ccc([N+](=O)[O-])cc3)nc(N)nc21 (centres undefined)	5.28

Ask: Respond only with pEC50 recorded for COc1cccc(-c2nc(N)nc3c2CCCC3C)c1 (centres undefined)
Reply: 6.60

###

- system: Histamine H2 receptor (Homo sapiens)
- assay info: Agonist activity at recombinant human Gs-coupled H2 receptor expressed in HEK293T cells assessed as inhibition of forskolin-stimulated cAMP accumulation preincubated for 10 to 15 followed by forskolin-stimulation by Glo-sensor assay
- Format: functional, cell-based
- assay context: read-out: EC50
Recorded log10(EC50) by entry
Scale: log10; quantity: EC50; unit before log: nM

Example results:
CC1CCCc2c(-c3ccc(Cl)cc3)nc(N)nc21 (configuration not stated)	1.90
CCCCc1cc(-c2ccc(OC)cc2)nc(N)n1	3.71
COc1ccc(-c2nc(N)nc3c2CC(C)CC3)cc1 (configuration not stated)	3.33
CC1CCCc2c(-c3ccccc3)nc(N)nc21 (configuration not stated)	2.00

Ask: Quick one: give measured log10(EC50) for Cc1ccc(-c2nc(N)nc3c2CCCC3C)cc1 (configuration not stated)
Reply: 2.94

Ask: Complete the entry with log10(EC50) for CC1CCCc2c(-c3cccc(Br)c3)nc(N)nc21 (configuration not stated)
Reply: 2.92

Ask: Quickly give me recorded log10(EC50) for `COc1ccc(-c2nc(N)nc3c2CCCC3)cc1`
Reply: 3.14

###

- system: Histamine H2 receptor (Homo sapiens)
- assay info: Agonist activity at recombinant human Gs-coupled H2 receptor expressed in HEK293T cells assessed as inhibition of forskolin-stimulated cAMP accumulation preincubated for 10 to 15 followed by forskolin-stimulation by Glo-sensor assay
- Assay type: functional, cell-based
- assay context: read-out: pEC50 (converted)
Listing: EC50 of selected molecules
Just the number please, in µM, no unit attached.

The cases that follow already have their EC50 on record.
CCCCc1cc(-c2ccc(OC)cc2)nc(N)n1	5.25
CC1CCCc2c(-c3cccc(Br)c3)nc(N)nc21 (centres undefined)	0.316
CC1CCCc2c(-c3ccc([N+](=O)[O-])cc3)nc(N)nc21 (centres undefined)	5.37

Please find the next molecule below.
Ask: Specify measured EC50 for `COc1ccc(-c2nc(N)nc3c2CCCC3)cc1` .
Reply: 1.29

###

- system: Histamine H2 receptor (Homo sapiens)
- assay info: Agonist activity at recombinant human Gs-coupled H2 receptor expressed in HEK293T cells assessed as inhibition of forskolin-stimulated cAMP accumulation at 10 uM preincubated for 10 to 15 followed by forskolin-stimulation by Glo-sensor assay relative to control
- Type: functional, cell-based
- Set-up: scale not given: the % may be the effect or the level left
measured endpoint: Activity

As a guide, the following entries are already answered.
CC1CCCc2c1nc(N)nc2C1CCCCC1 (centres undefined)	50%
CC1CCCc2c(-c3ccccc3)nc(N)nc21 (centres undefined)	50%
CC1CCCc2c(-c3ccc(Cl)cc3)nc(N)nc21 (centres undefined)	50%

Ask: Using known records, supply Activity for CC1CCCc2c(-c3ccc(C#N)cc3)nc(N)nc21 (centres undefined)
Reply: < 50%

Ask: For Cc1ccc(-c2nc(N)nc3c2CCCC3C)cc1 (centres undefined) , write its Activity.
Reply: 50%

Ask: Provide only the value of recorded Activity for COc1ccc(-c2nc(N)nc3c2CCCC3C)cc1 (racemic)
Reply: < 50%

Ask: Determine its reported Activity: CC1CCCc2c(-c3ccc([N+](=O)[O-])cc3)nc(N)nc21 (centres undefined)
Reply: 50%

Ask: Give Activity for CC1CCCc2c(-c3cccc4ccccc34)nc(N)nc21 (centres undefined)
Reply: < 50%

Ask: Entry CC1CCCc2c(-c3cccc(Br)c3)nc(N)nc21 (centres undefined) needs its Activity filled in; supply it.
Reply: 50%

Ask: Please give the documented Activity of CC1CCCc2c(-c3ccc(Br)cc3)nc(N)nc21 (centres undefined)
Reply: < 50%

Ask: Note Activity for the compound shown: COc1ccc(-c2nc(N)nc3c2CC(C)CC3)cc1 (centres undefined)
Reply: 50%

Ask: Look up and report measured Activity for this entry: CC1CCCc2c(-c3cccc(O)c3)nc(N)nc21 (centres undefined)
Reply: < 50%

Ask: Supply Activity value. Item: CC1CCCc2c(-c3cccnc3)nc(N)nc21 (centres undefined)
Reply: < 50%

Ask: Note Activity for the compound shown: COc1cccc(-c2nc(N)nc3c2CCCC3C)c1 (centres undefined)
Reply: 50%

###

- assay info: Fraction unbound in C57BL/6J mouse brain by equilibrium dialysis method
- Format: ADME, tissue-based
measured endpoint: fraction unbound

Ask: Dear colleague, please send me the reported fraction unbound for COc1ccc(-c2nc(N)nc3c2CCCC3C)cc1 (racemic) when you can.
Reply: 0.284

###

- system: Histamine H3 receptor (Homo sapiens)
- assay info: Antagonist activity at recombinant human Gi-coupled H3 receptor expressed in HEK293T cells assessed as reduction in histamine-induced inhibition of forskolin-stimulated cAMP accumulation preincubated for 10 to 15 followed by histamine addition for 10 mins and subsequent forskolin-stimulation by Glo-sensor assay
measured endpoint: IC50 (nM)
Write the answer as a number in nM, unit excluded.

CC1CCCc2c(-c3ccccc3)nc(N)nc21 (centres undefined)	1300
CC1CCCc2c(-c3ccc(F)cc3)nc(N)nc21 (centres undefined)	560
COc1ccc(-c2nc(N)nc3c2CCCC3)cc1	2750
CC1CCCc2c(-c3ccc(Br)cc3)nc(N)nc21 (centres undefined)	3100
CC1CCCc2c(-c3cccc4ccccc34)nc(N)nc21 (centres undefined)	2710
CC1CCCc2c(-c3cccc(Br)c3)nc(N)nc21 (centres undefined)	90
CC1CCCc2c(-c3cccnc3)nc(N)nc21 (centres undefined)	6800
CC1CCCc2c(-c3ccc(Cl)cc3)nc(N)nc21 (centres undefined)	900

Ask: Please supply the value of reported IC50 for the item Cc1ccc(-c2nc(N)nc3c2CCCC3C)cc1 (centres undefined)
Reply: 2930

From: ChEMBL document CHEMBL4393678
